Measured zone of inhibition at 10 µg/mL of individual entries
- Tested on: S. pyogenes (ATCC 19615)
- Protocol Details: Agar diffusion method, zone of inhibition
- Type: cell-based, Streptococcus pyogenes
- Condition Details: Streptococcus pyogenes, ATCC19615, 24 h, read-out: Diameter of zone inhibition
Endpoint Label: zone of inhibition at 10 µg/mL

INSERT INTO assay_data (molecule, system_under_test, value_measured) VALUES
  ('CC(=O)C1=C(C)N2NC(C)(c3ccccc3O)N(C(C)C(=O)O)C2=NC1c1ccc(Cl)cc1 (stereo not drawn)', 'S. pyogenes (ATCC 19615)', '10 mm'),
  ('N#Cc1c(-c2ccc(Cl)cc2)nc2n(c1=O)NC(c1ccccc1O)N2C(Cc1c[nH]c2ccccc12)C(=O)O (stereo not drawn)', 'S. pyogenes (ATCC 19615)', '19 mm'),
  ('CC(C(=O)O)N1C2=NC(c3ccc(Cl)cc3)c3c([nH]c(=O)[nH]c3=O)N2NC1(C)c1ccccc1O (stereo not drawn)', 'S. pyogenes (ATCC 19615)', '11 mm');
